# Test system: MS2 coat protein
# PROTOCOL_SUMMARY: apparent KD of MS2 coat protein; designed switch direction (-1 OFF switch, 1 ON switch): -1; higher = weaker reporter binding
# CONDITION_SET: input ligand: FMN 200 uM
Parameter: apparent KD of MS2 coat protein. Scope: all listed entries.

ENTRY_SEQUENCE	apparent KD of MS2 coat protein
CCUCGUGCACGAGGAUAUUGGAAAGGAAGUGUACGAGAAGGCGUGCCGAGGGAACAUGAGGAUCACCCAUGUGGCCUCAUCACA [PowerStrip EXNG 1.13] (Eterna round: R96, puzzle: Exclusion NG 1)	120 nM
UACAUGAGGAUCACCCAUGUUUUGUCGUGUAUGGUAUUUAUCUAGGAUAUCAAGUUAAUUAUUUAUGAGAAGGAGAAUAUUAAU [JMF's solution 28] (Eterna round: R96, puzzle: Exclusion NG 3)	37 nM
UUUUGGCAUGUAGGAUAUGGGUCCGAUUAGGAUUUAGAAGGACAUGAGGAUCACCCAUGUGCAUUUAAUUGGUCUUUACUUUUU [EXclNG1-LROPPY13] (Eterna round: R96, puzzle: Exclusion NG 1)	115 nM
